Values compiled from patent US20250066344A1.

# experimental_system: human RXFP1 (Homo sapiens)
# Sequence (Q9HBX9 1-757): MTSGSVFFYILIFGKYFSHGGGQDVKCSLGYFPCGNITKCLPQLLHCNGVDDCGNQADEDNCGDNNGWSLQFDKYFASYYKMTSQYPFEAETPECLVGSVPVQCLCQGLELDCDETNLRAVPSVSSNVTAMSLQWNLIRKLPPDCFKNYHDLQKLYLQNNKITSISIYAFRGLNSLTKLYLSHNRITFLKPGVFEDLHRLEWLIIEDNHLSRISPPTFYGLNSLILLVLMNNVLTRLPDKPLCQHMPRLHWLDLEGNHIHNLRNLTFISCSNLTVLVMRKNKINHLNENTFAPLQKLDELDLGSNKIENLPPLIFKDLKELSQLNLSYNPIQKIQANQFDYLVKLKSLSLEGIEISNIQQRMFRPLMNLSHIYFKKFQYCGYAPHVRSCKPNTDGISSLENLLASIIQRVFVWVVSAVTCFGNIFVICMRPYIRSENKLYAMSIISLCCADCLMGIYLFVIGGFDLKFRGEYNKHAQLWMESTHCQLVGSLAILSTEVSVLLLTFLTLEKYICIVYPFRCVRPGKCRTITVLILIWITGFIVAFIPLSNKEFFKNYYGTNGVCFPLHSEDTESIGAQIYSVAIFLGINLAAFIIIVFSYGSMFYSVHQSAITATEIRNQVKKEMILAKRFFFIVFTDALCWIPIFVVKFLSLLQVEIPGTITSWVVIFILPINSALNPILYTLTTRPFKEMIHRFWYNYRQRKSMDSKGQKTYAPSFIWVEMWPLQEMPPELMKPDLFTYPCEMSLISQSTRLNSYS
# protocol_text: RXFP1 cyclic adenosine monophosphate (cAMP) assay, hRXFP1 HEK293
# run_conditions: HEK293 cells stably expressing human RXFP1; 30 min at room temperature; HTRF cAMP
pEC50: −log10 of the molar value.
Binary classification by pEC50, with 7 as an inclusive lower bound for class 1; all other cases are class 0.

compound	experimental_system	assigned_class
COc1ccc(C2=NOC3CC(O)CC23)cc1C(=O)Nc1cc2nc(C)sc2cc1C(=O)Nc1ccc(F)c(C(F)(F)F)c1 (single isomer, unassigned) [Example 23]	human RXFP1 (Homo sapiens)	class 0
COc1ccc(C2=NOC3CN(CC(C)(C)O)CC23)cc1C(=O)Nc1cc2c(cc1C(=O)Nc1ccc(F)c(C(F)(F)F)c1)OC(F)(F)O2 (stereo not drawn) [Example 45]	human RXFP1 (Homo sapiens)	class 1
COc1cc(F)c(C2=NOC3CC(CO)CC23)cc1C(=O)Nc1cc2c(cc1C(=O)Nc1ccc(F)c(C(F)(F)F)c1)OC(F)(F)O2 (stereo not drawn) [Example 102]	human RXFP1 (Homo sapiens)	class 1
COc1ccc(C2=NOC3COCC23)cc1C(=O)Nc1cc2nc(C)sc2cc1C(=O)Nc1ccc(F)c(C(F)(F)F)c1 (stereo not drawn) [Example 3]	human RXFP1 (Homo sapiens)	class 1
CC1(C)Cc2cc(C3=NOC4CC(CO)CC34)cc(C(=O)Nc3cc4c(cc3C(=O)Nc3ccc(F)c(C(F)(F)F)c3)OC(F)(F)O4)c2O1 (stereo not drawn) [Example 100]	human RXFP1 (Homo sapiens)	class 1

Hi team, for COc1ccc(-c2cc(C(NC(=O)C3CCOCC3)C(=O)O)ccc2F)cc1C(=O)Nc1cc2sc(C)nc2cc1C(=O)Nc1ccc(F)c(C(F)(F)F)c1 (single isomer, unassigned) [Example 30] , is the recorded pEC50 at or above 7?
class 1

# bool: pEC50 of COc1ccc(-c2cnc3n2CCN(C2COC2)C3)cc1C(=O)Nc1cc2c(cc1C(=O)Nc1ccc(F)c(C(F)(F)F)c1)OC(F)(F)O2 [Example 81] >= 7
class 0

Reported pEC50 at or above 7? COc1ccc(N2CC(CO)CC2=O)cc1C(=O)Nc1cc2nc(C)sc2cc1C(=O)Nc1ccc(F)c(C(F)(F)F)c1 (stereo not drawn) [Example 13]
class 0
